- assay-name: Clearance in Sprague-Dawley rat at 2 mg/kg, iv
- Type: ADME, organism-based
- Parameters: dose 2 mg/kg, route intravenous
- condition-context: in vivo
assay-endpoint: clearance (mL/min/kg)
Dear colleague, please return just the value in mL/min/kg, with no unit written.

Ask: # query: clearance of entry COc1cc2nccc(Oc3ccc(NC(=O)c4c(C)n(C)n(-c5ccccc5)c4=O)cc3F)c2cc1OC
Result: 0.583

###

- experimental-system: Hepatocyte growth factor receptor (Homo sapiens, UniProt P08581)
- Sequence (P08581 whole entry): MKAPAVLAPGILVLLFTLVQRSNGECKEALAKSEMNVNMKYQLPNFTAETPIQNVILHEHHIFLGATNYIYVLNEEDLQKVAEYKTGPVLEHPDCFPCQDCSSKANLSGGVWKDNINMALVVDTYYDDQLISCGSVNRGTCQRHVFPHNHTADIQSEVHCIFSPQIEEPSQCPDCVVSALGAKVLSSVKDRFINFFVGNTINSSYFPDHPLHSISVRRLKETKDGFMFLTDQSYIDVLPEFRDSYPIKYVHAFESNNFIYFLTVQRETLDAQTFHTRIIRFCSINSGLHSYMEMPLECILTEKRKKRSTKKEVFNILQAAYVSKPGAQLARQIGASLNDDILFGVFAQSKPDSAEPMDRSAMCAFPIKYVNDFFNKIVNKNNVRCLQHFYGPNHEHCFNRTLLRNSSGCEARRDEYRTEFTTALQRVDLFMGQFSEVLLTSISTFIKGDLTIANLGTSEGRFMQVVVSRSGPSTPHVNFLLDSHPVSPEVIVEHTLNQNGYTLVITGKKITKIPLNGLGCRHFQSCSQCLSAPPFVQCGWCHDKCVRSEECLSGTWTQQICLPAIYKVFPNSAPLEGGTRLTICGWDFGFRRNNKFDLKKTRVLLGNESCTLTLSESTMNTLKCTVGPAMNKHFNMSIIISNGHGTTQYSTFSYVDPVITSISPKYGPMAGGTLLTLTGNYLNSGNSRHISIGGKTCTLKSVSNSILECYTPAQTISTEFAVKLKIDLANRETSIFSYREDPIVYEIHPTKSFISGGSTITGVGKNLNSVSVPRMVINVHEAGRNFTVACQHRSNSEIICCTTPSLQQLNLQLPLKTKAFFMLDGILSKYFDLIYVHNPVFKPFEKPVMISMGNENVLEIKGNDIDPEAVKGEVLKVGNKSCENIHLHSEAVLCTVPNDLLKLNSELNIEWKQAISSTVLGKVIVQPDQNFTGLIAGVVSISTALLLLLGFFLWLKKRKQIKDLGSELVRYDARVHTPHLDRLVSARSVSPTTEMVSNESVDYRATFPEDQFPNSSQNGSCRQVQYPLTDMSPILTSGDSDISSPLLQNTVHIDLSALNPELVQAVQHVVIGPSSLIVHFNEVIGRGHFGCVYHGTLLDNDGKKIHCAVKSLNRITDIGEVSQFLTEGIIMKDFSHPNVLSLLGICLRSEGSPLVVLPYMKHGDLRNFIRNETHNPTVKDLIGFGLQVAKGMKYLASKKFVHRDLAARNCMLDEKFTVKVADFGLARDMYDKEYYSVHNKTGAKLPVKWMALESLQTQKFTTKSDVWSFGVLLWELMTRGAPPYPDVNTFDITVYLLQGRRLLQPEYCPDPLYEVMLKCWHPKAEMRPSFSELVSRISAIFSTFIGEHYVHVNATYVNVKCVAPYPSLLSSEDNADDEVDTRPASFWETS
- assay-name: Inhibition of recombinant c-met-mediated gastrin phosphorylation by HTRF assay
assay-endpoint: pKi
Field pKi (float): negative decimal logarithm of the concentration in molar.

COc1ccc2c(OCc3nnc4ccc(-c5cc(F)c(F)c(F)c5)cn34)ccnc2c1 | 8.32

Please examine the following record next.
Ask: Can you share its pKi? I mean this compound: COc1cc2nccc(Oc3ccc(NC(=O)N4CCN(c5ccccc5)C4=O)cc3F)c2cc1OC
Result: 8.77

Value source: ChEMBL document CHEMBL2029285
